# ASSAY EXPLANATION: qHTS assay to identify small molecule agonists of the estrogen receptor beta (ER-beta) signaling pathway - cell viability counter screen (AID 1259380); also: nearly all actives have a fitted effect of over 30% in size
# CONDITION INFO: ER-beta-bla HEK293T viability, CellTiter-Glo luminescence, 16 h; series mostly up to 92.4 µM
Inconclusive results are not listed. Active and inactive are the calls of the source. Calls follow the shape of the dose curve; as a rule, active = well fitted cell-killing curve with a large enough effect in the repeat runs; inconclusive = weak or mixed curves, or effect the other way; inactive = flat fitted curve, though single readings scatter.
Classes used: y = active, n = inactive

MOLECULE: CN(C)c1ccc(C(=C2C=CC(=[N+](C)C)C=C2)c2ccccc2)cc1
CATEGORY LABEL: y
--
MOLECULE: O=C1CC2(CCCC2)CC(=O)N1CCCCN1CCN(c2ncccn2)CC1
CATEGORY LABEL: y
--
MOLECULE: Cc1cccc2n[nH]nc12
CATEGORY LABEL: n
--
MOLECULE: CCCCC/C=C/CC1CC(=O)OC1=O (configuration not stated)
CATEGORY LABEL: n
--
MOLECULE: O=C(OCc1ccccc1)c1ccc(O)cc1
CATEGORY LABEL: n
--
MOLECULE: NC(N)=Nc1nc(CSCC/C(N)=N/S(N)(=O)=O)cs1
CATEGORY LABEL: n
--
MOLECULE: c1cnc2cc3c(cc2n1)C1CNCC3C1
CATEGORY LABEL: n
